Data provenance is a melting point compilation (Tetko et al.; mined from patent text by program, amines drawn as free bases though some values may be those of a salt).

{"Compound": "O=C(Nc1cccc(C(F)(F)F)c1)Nc1ccc2[nH]c(C(F)(F)F)nc2c1", "melting point": "213 to 215 °C"}
{"Compound": "O=C(O)c1ccc(-c2cc3ccccc3[nH]2)cc1", "melting point": "205 °C"}
{"Compound": "c1ccc2c3c([nH]c2c1)C(c1ccc2c(c1)CCO2)NCC3 (stereo not given)", "melting point": "98 to 99 °C"}
{"Compound": "O=C1CCC(N2Cc3c(OCc4ccc(C(=O)NCCN5CCCCC5)cc4)cccc3C2=O)C(=O)N1 (stereo not given)", "melting point": "220 to 222 °C"}
{"Compound": "O=C(NCCN(C1CC1)S(=O)(=O)c1ccccc1[N+](=O)[O-])N1CCN2C(=O)OC(c3ccccc3)(c3ccccc3)C2C1 (stereo not given)", "melting point": "136 to 138 °C"}

* * *

Below is a list of entries, each paired with its recorded melting point value.

{"Compound": "Cc1ccc(S(=O)(=O)N2CC[C@@H](C(C#N)(c3ccccc3)c3ccccc3)C2)cc1", "melting point": "165 to 178 °C"}
{"Compound": "O=c1[nH]c(N[N+](=O)[O-])ncc1Cc1cccc2ccccc12", "melting point": "226 to 227 °C"}
{"Compound": "C[C@@H]1N=C(c2ccccc2)c2cc(NC(=O)CCCCCCC(=O)O)ccc2N(C)C1=O", "melting point": "87 to 88 °C"}
{"Compound": "CC(=O)OC1CSC(Oc2cc(-c3cncnc3)cnc2Cl)C(OC(C)=O)C1OC(C)=O (stereo not given)", "melting point": "72 to 90 °C"}
{"Compound": "COc1cc2ccc([C@](O)(c3c[nH]cn3)C(C)C)cc2cc1OC", "melting point": "156 to 157 °C"}

* * *

Below is a list of entries, each paired with its recorded melting point value.
Quantity: melting point

{"Compound": "CC(C)(C)OC(=O)N1C[C@@H](c2c[nH]c3ccccc23)[C@H](c2cn3c4c(cccc24)CCC3)C1", "Quantity": "melting point", "Result": "239 to 240 °C"}
{"Compound": "O=C1CCC(Nc2ncc3ncnc(Nc4ccc(F)c(Cl)c4)c3n2)CC1", "Quantity": "melting point", "Result": "232 to 234 °C"}
{"Compound": "CC1(C)OC(c2ccccc2)CN1C(=O)C(Cl)Cl (centres undefined)", "Quantity": "melting point", "Result": "99.5 to 100 °C"}
{"Compound": "Clc1cc(NC23CC4CC(CC(C4)C2)C3)nc(NC23CC4CC(CC(C4)C2)C3)n1", "Quantity": "melting point", "Result": "232 to 236 °C"}
{"Compound": "COc1cc(Cl)cc2nc(S(=O)(=O)Nc3c(Cl)cccc3Cl)nn12", "Quantity": "melting point", "Result": "232 to 234 °C"}
{"Compound": "Cc1cc(Cl)ccc1NS(=O)(=O)c1cc(S(=O)(=O)Nc2ccc(Cl)cc2C)c2cc(O)ccc2c1", "Quantity": "melting point", "Result": "140 to 142 °C"}
{"Compound": "Cc1cc(-c2ccc(O)cc2)cc2ccc(=O)[nH]c12", "Quantity": "melting point", "Result": "270 to 274 °C"}
{"Compound": "CCNC(=O)N1CCC(c2cc(F)ccc2F)(S(=O)(=O)c2ccc(Cl)cc2)CC1", "Quantity": "melting point", "Result": "172 to 174 °C"}
{"Compound": "CN(Cc1ccc(NC(=O)C2=Cc3cc(-c4ccc(OC5CCOCC5)cc4)ccc3S(=O)(=O)CC2)cc1)C1CCOCC1", "Quantity": "melting point", "Result": "227 to 229 °C"}

* * *

Below is a list of entries, each paired with its recorded melting point value.

{"Molecule": "CS(=O)CCNC(=O)c1cccc(-c2ccc3c(c2)C(c2cc(Cl)ccc2Cl)CC3)c1 (centres undefined)", "melting point": "136 to 138 °C"}
{"Molecule": "CCC(c1cccc(Br)c1)c1c(O)c2ccccc2oc1=O (centres undefined)", "melting point": "168 to 172 °C"}
{"Molecule": "O=[N+]([O-])c1ccc2nc(-c3ccc(Cl)cc3)sc2c1", "melting point": "227 to 232 °C"}
{"Molecule": "CC(=O)Nc1c(C(=O)c2cc(-c3ccccc3)no2)[nH]c2cc(Cl)ccc12", "melting point": "209 to 210 °C"}
{"Molecule": "CN(C)CCCCC(=O)c1ccc2c(c1)Cc1cc(C(=O)CCCCN(C)C)ccc1-2", "melting point": "124 to 126 °C"}
{"Molecule": "COc1cc(C(O)c2ccccc2[N+](=O)[O-])c(Br)cn1 (centres undefined)", "melting point": "128 to 131 °C"}
{"Molecule": "COc1cc2c(cc1Nc1ncc(Cl)c(N[C@@H]3CCCC[C@H]3NS(C)(=O)=O)n1)N(C)CCN(C[C@@H](O)C(F)(F)F)C2", "melting point": "63 to 66 °C"}
{"Molecule": "Clc1ccc(CO[C@H]2CO[C@@H](c3ccccc3)OC2)cc1Cl", "melting point": "77 to 78 °C"}
{"Molecule": "Cc1nc2cnc3cc(Cl)ccc3c2s1", "melting point": "181 to 183 °C"}

* * *

Below is a list of entries, each paired with its recorded melting point value.

{"Compound": "Fc1ccc(Cn2c(NC3CCN(CCNC(=S)N4CCCCC4)CC3)nc3ccccc32)cc1", "melting point": "176 °C"}
{"Compound": "CCOC(=O)CCCOc1ccc(-c2cc(C#N)c(=O)[nH]c2C)cc1", "melting point": "222 to 224 °C"}
{"Compound": "Fc1ccc(-c2ncn(C3CCN4CCCC4C3)c2-c2ccncc2)cc1 (stereo not given)", "melting point": "187 to 189 °C"}
{"Compound": "O=C(O)COc1cccnc1Br", "melting point": "172 to 174 °C"}
{"Compound": "CC(=O)Oc1ccc2c(c1)CCC1C2CCC2(C)C(OS(C)(=O)=O)CCC12 (stereo not given)", "melting point": "120 to 122 °C"}

* * *

{"Compound": "CCC1Cc2cc(OCC(=O)O)c(Cl)cc2C1=O (stereo not given)", "melting point": "132 to 138 °C"}
{"Compound": "Cc1cc2c(=O)c3ccccc3oc2c2c1OC(C(=O)O)C2 (stereo not given)", "melting point": "292 to 295 °C"}
{"Compound": "COC(=O)C(CCSC)NC(=O)c1ccc(NC(=O)Cc2cn(C)cn2)cc1-c1ccccc1 (stereo not given)", "melting point": "69 to 70 °C"}
{"Compound": "COc1c(Cl)ccc(-c2cc(N)c(Cl)c(C(=O)NOC3C=CCCC3)n2)c1F (stereo not given)", "melting point": "180 to 182 °C"}
{"Compound": "CC(C)Oc1ccc2c(c1)Oc1cccc(F)c1S2(=O)=O", "melting point": "151 to 152 °C"}
{"Compound": "CCOC(=O)C(C)(C(=O)OCC)C(=O)c1cc([N+](=O)[O-])cc(Br)c1Cl", "melting point": "75 to 76.5 °C"}
{"Compound": "CN(C)C(=O)C(C)(C)n1cc(C#N)c(-c2ccccc2)n1", "melting point": "116 to 119 °C"}
{"Compound": "NC(=O)c1nn(-c2ccc(S(N)(=O)=O)cc2)c2c1CSc1ccccc1-2", "melting point": "211 to 213 °C"}
{"Compound": "OC(Cn1cncn1)c1ccc(Oc2ccc(Br)cc2)cc1Cl (stereo not given)", "melting point": "115 to 118 °C"}
{"Compound": "CS(=O)(=O)c1ccc(-c2[nH]nc(OC3CCCCC3=O)c2-c2ccc(F)cc2)cc1 (stereo not given)", "melting point": "113 to 116 °C"}

* * *

Below is a list of entries, each paired with its recorded melting point value.

{"Compound": "COc1ccc(S(=O)(=O)c2cnoc2C(C)C)cc1", "melting point": "62 to 63.5 °C"}
{"Compound": "CCOc1cc(C)c(CCl)c(C)c1C", "melting point": "63 to 64 °C"}
{"Compound": "COc1cc(C(C)(C)C)c(OC)cc1I", "melting point": "80.5 to 82.5 °C"}
{"Compound": "CSC1NC(=O)N(C)C(=O)N1N (stereo unspecified)", "melting point": "174 to 175 °C"}
{"Compound": "Cc1cc(-c2nc3cccnn3c2-c2ccnc(NC(=O)c3cccc4cccnc34)c2)ccc1F", "melting point": "229 to 230 °C"}
{"Compound": "COC(CNC(=O)CCl)OC", "melting point": "33 to 36 °C"}
{"Compound": "[N-]=[N+]=NCC1CN(c2cc(F)c(-c3cccnc3)c(F)c2)C(=O)O1 (stereo unspecified)", "melting point": "97 to 98 °C"}
{"Compound": "Nc1nc(Nc2cccnc2)nn1-c1ccccn1", "melting point": "256 °C"}
{"Compound": "Clc1ccc2sc(=NCCc3c[nH]c4ccccc34)sc2c1", "melting point": "145 to 147 °C"}
{"Compound": "CC(N)(Cc1c[nH]c2ccccc12)C(=O)NCCc1ccccc1 (stereo unspecified)", "melting point": "106 to 110 °C"}
{"Compound": "CNCC(O)c1cn(C(c2ccccc2)(c2ccccc2)c2ccccc2)cn1 (stereo unspecified)", "melting point": "169 to 171 °C"}
{"Compound": "CCCCc1ncc(/C=C(\\Cc2ccsc2)c2nnn[nH]2)n1Cc1ccccc1Cl", "melting point": "142 to 144 °C"}
{"Compound": "CC=CC(=O)c1ccc(CCCCNC(C)=O)cc1", "melting point": "64 to 66 °C"}
{"Compound": "O=c1cc(OCc2ccccc2)c2ccc(OCCc3ccc(F)cc3)cc2o1", "melting point": "120 °C"}
{"Compound": "CC(C)(C)OC(=O)CCc1cccc(-c2nc(=O)c3ccc(F)cc3s2)n1", "melting point": "158 to 160 °C"}
{"Compound": "CCCCCCCCCCCCCCCC(=O)OCC(F)(F)Cn1nc(C)c(-c2ccc3c(c2)NC(=O)CO3)c1-c1ccc(F)cc1", "melting point": "106 °C"}
{"Compound": "CC(C)C(C(=O)O)c1ccc(OC(F)F)c([N+](=O)[O-])c1 (stereo unspecified)", "melting point": "88 to 90 °C"}
{"Compound": "CCCc1nn(C)c(C(N)=O)c1NC(=O)c1sccc1OCC", "melting point": "103 to 104 °C"}
{"Compound": "OCc1ccc(-c2cccc(-c3cn([C@H]4CN5CCC4CC5)nn3)c2)cc1", "melting point": "214 °C"}
{"Compound": "Cc1c(N2CCC(C(N)c3ccccn3)C2)c(F)c(N)c2c(=O)c(C(=O)O)cn(C3CC3F)c12 (stereo unspecified)", "melting point": "127 to 129 °C"}
{"Compound": "Nc1ccc(C(=O)Nc2ccc(-c3c[nH]c(=O)cn3)cc2)cc1", "melting point": "> 300 °C"}
